These entries and their values trace back to patent US20080249042A1.

Test: Liver retinoids of Lrat-/- mice 3 h after gavage with all-trans-ROL palmitate
Type: in vivo, mouse
Settings: Lrat−/− (LRAT-deficient knockout), mouse, liver, oral, Lrat-/- mice, liver, 3 hr post-gavage, 10^5 IU/kg body weight all-trans-ROL palmitate; read-out: Level of liver retinoids 3 hr following gavage with ROL palmitate
recorded metric: concentration at 3 h (nM)
Unit nM implied. Number only.

molecule | concentration at 3 h [nM]
CC1=C(/C=C/C(C)=C/C=C/C(C)=C/C(=O)O)C(C)(C)CCC1 [all-trans-RA, all-trans-retinoic acid, reference compound] | 320

Continue with the molecule presented below.
Consider the molecule CC1=C(/C=C/C(C)=C/C=C/C(C)CO)C(C)(C)CCC1 (single isomer, unassigned) [C19-ROL] and give its measured concentration at 3 h.
200
